test: BSK_CASM3C_Proliferation: Cell Proliferation Assessment in the BioMAP Diversity Plus: CASM3C Assay (AID 2283047); conditions: primary human coronary artery smooth muscle cells;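 also: sulforhodamine B total protein stain as relative cell number at 560 nm; sub-confluent cells exposed 48 h before staining; fitted both ways against DMSO so gain or loss of cell number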
Active and inactive are the calls of the source. The calls were made as follows: active = hit-call score of the fitted dose curve at least 0.9, where 1 is the maximum; inactive = score below 0.9.
Outcomes: active, inactive

>>> class("CCCCCCCCc1ccc(Nc2ccc(CCCCCCCC)cc2)cc1")
"active"
>>> class("CC(C)(c1cc(Br)c(OCCO)c(Br)c1)c1cc(Br)c(OCCO)c(Br)c1")
"inactive"
>>> class("O=c1c2ccccc2oc2ccccc12")
"inactive"
>>> class("C=CC(=O)OCC(Br)CBr (centres undefined)")
"active"
>>> class("CCCCC(CC)COC(=O)c1ccccc1O (centres undefined)")
"inactive"
>>> class("CCCCCCCCCCCCCCCC[N+](C)(C)CC")
"active"
>>> class("N#[N+]c1ccc2c(S(=O)(=O)[O-])cccc2c1O")
"inactive"
>>> class("CN1C(=O)N(C)C(O)C1O (centres undefined)")
"inactive"
>>> class("c1ccc2c(c1)ccc1cc3c(ccc4ccccc43)cc12")
"inactive"
>>> class("COc1ccc2nc(N)sc2c1")
"inactive"
>>> class("C=CCOc1c(Br)cc(Br)cc1Br")
"active"
>>> class("C/C=C\\C/C=C/CCCCCCCCOC(C)=O")
"active"
>>> class("CCCCNc1ccc(NCCCC)c2c1C(=O)c1ccccc1C2=O")
"inactive"
>>> class("COCc1c(C(C)C)nc(C(C)C)c(/C=C/[C@@H](O)C[C@@H](O)CC(=O)O)c1-c1ccc(F)cc1")
"active"
